System: K. pneumoniae H 522
RUN DESCRIPTION: Antibacterial activity, MIC by agar dilution (CLSI)
Format: cell-based
CONDITION INFO: K. pneumoniae H 522; compound tested alone
Measured MIC accompanies every entry in the list below.

[[record]]
molecule = "O=C(NNC(=O)[C@@H]1CC[C@@H]2CN1C(=O)N2OS(=O)(=O)O)[C@@H]1C[C@@H](n2cccn2)CN1 [Example 32]"
target_system = "K. pneumoniae H 522"
experimental_endpoint = "MIC"
value_reported = "8 µg/mL"

[[record]]
molecule = "O=C(NNC(=O)[C@@H]1CC[C@@H]2CN1C(=O)N2OS(=O)(=O)O)C1C[C@H](n2ccnc2)CN1 (stereo partly shown) [Example 34]"
target_system = "K. pneumoniae H 522"
experimental_endpoint = "MIC"
value_reported = "8 µg/mL"

[[record]]
molecule = "CN1CCN([C@H]2CNC(CONC(=O)[C@@H]3CC[C@@H]4CN3C(=O)N4OS(=O)(=O)O)C2)CC1 (stereo partly shown) [Example 22]"
target_system = "K. pneumoniae H 522"
experimental_endpoint = "MIC"
value_reported = "8 µg/mL"


Fill in MIC for record CC(C)(O/N=C(\C(=O)N[C@@H]1C(=O)N2C(C(=O)[O-])=C(C[n+]3ccccc3)CS[C@H]12)c1csc(N)n1)C(=O)O [Ceftazidime, reference compound]
>32 µg/mL

----------
System: E. coli M 50
RUN DESCRIPTION: Antibacterial activity, MIC by agar dilution (CLSI)
Format: cell-based
CONDITION INFO: E. coli M 50; compound tested alone
EXPERIMENTAL ENDPOINT: MIC

[[record]]
compound = "CN1CCN([C@H]2CNC(CONC(=O)[C@@H]3CC[C@@H]4CN3C(=O)N4OS(=O)(=O)O)C2)CC1 (stereo partly drawn)"
experimental_endpoint = "MIC"
value_reported = "8 µg/mL"


Identify measured MIC associated with O=C(NNC(=O)[C@@H]1CC[C@@H]2CN1C(=O)N2OS(=O)(=O)O)C1C[C@H](n2ccnc2)CN1 (stereo partly drawn) [Example 34]
8 µg/mL

Please report the measured MIC for O=C(NNC(=O)[C@@H]1CC[C@@H]2CN1C(=O)N2OS(=O)(=O)O)[C@@H]1C[C@@H](n2cccn2)CN1 [Example 3]
1 µg/mL

Please report the measured MIC for O=C(NNC(=O)[C@@H]1CC[C@@H]2CN1C(=O)N2OS(=O)(=O)O)[C@@H]1C[C@@H](n2cccn2)CN1 [Example 32]
4 µg/mL

Check the records and state MIC for O=C(NNC(=O)[C@@H]1CC[C@@H]2CN1C(=O)N2OS(=O)(=O)O)C1C[C@H](n2ccnc2)CN1 (stereo partly drawn) [Example 28]
2 µg/mL

Answer with the recorded MIC for the compound listed here: CC(C)(O/N=C(\C(=O)N[C@@H]1C(=O)N2C(C(=O)[O-])=C(C[n+]3ccccc3)CS[C@H]12)c1csc(N)n1)C(=O)O [Ceftazidime, reference compound]
>32 µg/mL

----------
Tested on: E. coli M 49
RUN DESCRIPTION: Antibacterial activity, MIC by agar dilution (CLSI)
Type: cell-based
CONDITION INFO: E. coli M 49; compound tested alone
EXPERIMENTAL ENDPOINT: MIC (µg/mL)
Form entry: value (µg/mL) — number only.

[[record]]
compound = "O=C(NNC(=O)[C@@H]1CC[C@@H]2CN1C(=O)N2OS(=O)(=O)O)C1C[C@H](n2ccnc2)CN1 (some centres unmarked)"
value_reported = 4

[[record]]
compound = "O=C(NNC(=O)[C@@H]1CC[C@@H]2CN1C(=O)N2OS(=O)(=O)O)[C@@H]1C[C@@H](n2cccn2)CN1 [Example 3]"
value_reported = 4


Look up and report measured MIC for this entry: CN1CCN([C@H]2CNC(CONC(=O)[C@@H]3CC[C@@H]4CN3C(=O)N4OS(=O)(=O)O)C2)CC1 (some centres unmarked)
8

Using known records, supply MIC for O=C(NNC(=O)[C@@H]1CC[C@@H]2CN1C(=O)N2OS(=O)(=O)O)[C@@H]1C[C@@H](n2cccn2)CN1 [Example 32]
32

----------
Tested on: K. pneumoniae ATCC 700603
RUN DESCRIPTION: Antibacterial activity, MIC by agar dilution (CLSI)
Assay type: cell-based
CONDITION INFO: compound tested alone
Description: The biological activity of representative compounds according to the invention against various bacterial strains was investigated. In a typical study, overnight grown bacterial cultures were diluted appropriately and inoculated on the agar media containing doubling dilutions of the test compounds. Observations for growth or no growth was performed after 16-20 hours of incubation at 35±2° C. in the ambient air. […]
# Lookup of reported MIC keyed by entry

[[record]]
molecule = "CN1CCN([C@H]2CNC(CONC(=O)[C@@H]3CC[C@@H]4CN3C(=O)N4OS(=O)(=O)O)C2)CC1 (stereo partly shown) [Example 22]"
value_reported = ">32 µg/mL"


Retrieve MIC on K. pneumoniae ATCC 700603; query O=C(NNC(=O)[C@@H]1CC[C@@H]2CN1C(=O)N2OS(=O)(=O)O)[C@@H]1C[C@@H](n2cccn2)CN1 [Example 32]
>32 µg/mL

Recall the reported MIC of O=C(NNC(=O)[C@@H]1CC[C@@H]2CN1C(=O)N2OS(=O)(=O)O)C1C[C@H](n2ccnc2)CN1 (stereo partly shown) [Example 34] when tested on K. pneumoniae ATCC 700603.
>32 µg/mL

Supply MIC measured with K. pneumoniae ATCC 700603 for CC(C)(O/N=C(\C(=O)N[C@@H]1C(=O)N2C(C(=O)[O-])=C(C[n+]3ccccc3)CS[C@H]12)c1csc(N)n1)C(=O)O [Ceftazidime, reference compound] .
16 µg/mL

----------
Test system: K. pneumoniae H 523
RUN DESCRIPTION: Antibacterial activity, MIC by agar dilution (CLSI)
Format: cell-based
CONDITION INFO: K. pneumoniae H 523; compound tested alone
MIC by entry:
State the answer as a number, implicitly in µg/mL.

Worked set:
[[record]]
compound = "CN1CCN([C@H]2CNC(CONC(=O)[C@@H]3CC[C@@H]4CN3C(=O)N4OS(=O)(=O)O)C2)CC1 (stereo partly shown) [Example 22]"
value_reported = 8

[[record]]
compound = "O=C(NNC(=O)[C@@H]1CC[C@@H]2CN1C(=O)N2OS(=O)(=O)O)C1C[C@H](n2ccnc2)CN1 (stereo partly shown) [Example 34]"
value_reported = 8


Now for the compound whose MIC we want.
Read the entry O=C(NNC(=O)[C@@H]1CC[C@@H]2CN1C(=O)N2OS(=O)(=O)O)[C@@H]1C[C@@H](n2cccn2)CN1 [Example 32] and write its reported MIC.
8
